# measured target: AChE VI-S (Electrophorus electricus)
# Sequence (O42275 24-633): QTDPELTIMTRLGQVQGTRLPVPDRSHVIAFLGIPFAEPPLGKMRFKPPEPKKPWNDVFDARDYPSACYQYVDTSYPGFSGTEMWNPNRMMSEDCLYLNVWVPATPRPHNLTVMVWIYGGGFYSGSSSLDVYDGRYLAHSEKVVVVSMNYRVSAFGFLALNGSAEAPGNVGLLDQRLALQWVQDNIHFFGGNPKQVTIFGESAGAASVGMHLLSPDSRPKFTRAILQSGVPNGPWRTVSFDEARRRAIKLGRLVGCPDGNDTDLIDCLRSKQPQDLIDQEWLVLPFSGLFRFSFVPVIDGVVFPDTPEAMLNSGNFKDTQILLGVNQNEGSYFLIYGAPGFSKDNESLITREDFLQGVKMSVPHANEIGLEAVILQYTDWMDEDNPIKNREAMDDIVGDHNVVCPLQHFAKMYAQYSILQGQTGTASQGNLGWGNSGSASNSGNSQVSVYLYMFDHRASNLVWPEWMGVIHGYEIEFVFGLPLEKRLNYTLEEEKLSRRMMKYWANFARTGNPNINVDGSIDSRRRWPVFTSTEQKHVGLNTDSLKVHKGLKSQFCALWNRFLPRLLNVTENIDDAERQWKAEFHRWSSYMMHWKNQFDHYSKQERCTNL
observed property: IC50

## Task Can you share its IC50? I mean this compound: CC1=CCC2CC1C2(C)C (stereo not shown)
## Result 3.27 mM

###

# Test system: Staphylococcus aureus ATCC 6538
# assay: Broth microdilution MIC and MBC
# Assay type: cell-based
# measurement setup: ATCC6538, read-out: MBC
# Method: The following test microorganisms used in this work were acquired from Sigma-Aldrich: Pseudomonas aeruginosa ATCC 9027, Escherichia coli ATCC 8739, Staphylococcus aureus ATCC 6538, and Candida albicans ATCC 10231. The stock cultures were preserved in TSB or YPD with 15% glycerol, for bacteria and yeast cells, respectively, at −80 °C. […] MIC were determined using the broth microdilution method in 96-well microplates, according to the M07-A10 [69] standard for bacteria and the M27-A3 [70] for Candida. […]
Structures can show the parent of a compound that is named as a salt.
observed property: MBC (µg/mL)
Report the figure in µg/mL without appending any unit label.

>>> value_observed("CC1(C)C2CCC1(C)C(O)C2 (stereo not drawn) [Borneol]")
300

## Task # MBC lookup, item CC1=CCC(O)(C(C)C)CC1 (stereo not drawn) [Terpinen-4-ol]
## Result 2300

## Task Would you mind telling me what MBC value was observed for [H]/N=C(/N)N[C@H]1[C@H](O)[C@@H](O)[C@H](O[C@@H]2O[C@@H](C)[C@](O)(C=O)[C@H]2O[C@@H]2O[C@@H](CO)[C@H](O)[C@@H](O)[C@@H]2NC)[C@@H](N/C(N)=N\[H])[C@@H]1O [Streptomycin sulfate, reference compound] ?
## Result 1

###

System: LOX (Glycine max) | Read-out: IC50
Sequence (P08170 whole entry): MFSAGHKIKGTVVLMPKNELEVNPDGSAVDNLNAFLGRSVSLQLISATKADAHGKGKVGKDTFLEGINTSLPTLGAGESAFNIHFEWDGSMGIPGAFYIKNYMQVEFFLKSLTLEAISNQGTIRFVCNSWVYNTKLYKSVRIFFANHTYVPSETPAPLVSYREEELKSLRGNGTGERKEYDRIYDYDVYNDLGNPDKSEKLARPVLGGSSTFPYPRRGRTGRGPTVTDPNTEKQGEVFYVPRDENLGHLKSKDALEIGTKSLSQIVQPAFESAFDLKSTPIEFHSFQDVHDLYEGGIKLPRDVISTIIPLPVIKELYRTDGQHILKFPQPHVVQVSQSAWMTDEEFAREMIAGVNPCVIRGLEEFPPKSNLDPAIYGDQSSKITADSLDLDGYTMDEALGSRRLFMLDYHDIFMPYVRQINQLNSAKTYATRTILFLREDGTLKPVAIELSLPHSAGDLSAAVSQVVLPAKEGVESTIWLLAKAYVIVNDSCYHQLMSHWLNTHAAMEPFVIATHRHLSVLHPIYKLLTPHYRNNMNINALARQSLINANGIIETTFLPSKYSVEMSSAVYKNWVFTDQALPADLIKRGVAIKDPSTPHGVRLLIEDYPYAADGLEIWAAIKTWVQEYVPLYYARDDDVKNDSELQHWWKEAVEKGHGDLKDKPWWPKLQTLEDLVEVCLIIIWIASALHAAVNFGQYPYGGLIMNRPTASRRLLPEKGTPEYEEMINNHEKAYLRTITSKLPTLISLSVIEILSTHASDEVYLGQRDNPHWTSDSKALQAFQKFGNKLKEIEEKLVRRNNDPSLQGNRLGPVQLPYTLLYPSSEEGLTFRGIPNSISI
Kindly answer with a numeric value in mM, unit omitted.

>>> value_observed("C=CC(C)(O)CCC=C(C)C (stereo not drawn) [Linalool]")
3.35

## Task Form field: reported IC50 of CC12CCC(CC1=O)C2(C)C (stereo not drawn) [Camphor]
## Result 2.74

## Task Need IC50, item CC(=O)OC1CC2CCC1(C)C2(C)C (stereo not drawn) [Bornyl acetate]
## Result 0.38

###

# Tested on: Staphylococcus aureus ATCC 6538
# assay: Broth microdilution MIC and MBC
# Assay type: cell-based
# measurement setup: ATCC6538, read-out: MBC
Overview of reported MBC across a group of compounds:

## Task Requested read-out: MBC. Entry: "CC12CCC(CC1)C(C)(C)O2"
## Result > 2300 µg/mL

## Task Data request, read-out MBC, for C=C1CC/C=C(\C)CC[C@@H]2[C@@H]1CC2(C)C [β-Caryophyllene, (E)-β-Caryophyllene]
## Result > 3100 µg/mL

## Task What does the record list as MBC for C=C1CCC2CC1C2(C)C (stereo not drawn) ?
## Result > 2000 µg/mL
